Target: human GLP-1 receptor (human, UniProt P43220)
Assay: cell-based or functional assay
Where no end group is shown, it is not given here.
OUTCOME_MEASURE: CRE luciferase EC50, 0% HSA

Answered cases to consult:
H-HAEGTFTSDVSSYLEGQAAKEFIAWLVEKVGEFLEK [[Glu34,Lys35,Val36]-GLP-1-(7-37)-peptidyl-Glu-Phe-Leu-Glu-Lys] = 0.041 nM
HGEGTFTSDVSSYLEGEAVKEFIAWLVEKVKEFLG [[Gly8,Glu23,Val25,Glu34,Lys35,Val36,Lys37]-GLP-1-(7-37)-peptidyl-Glu-Phe-Leu-Gly] = 0.464 nM
HAEGTFTSDVSSYLEGEAVKEFIAWLVEKVKEFL-NH2 [[Glu23,Val25,Glu34,Lys35,Val36,Lys37]-GLP-1-(7-37)-peptidyl-Glu-Phe-Leu amide] = 0.44 nM
HXEGTFTSDVSSYLEGQAAKEFIAWLVKKXKEFL (Aib at 8, 36; C-terminal amide) [[Aib8,Lys35,Aib36,Lys37]-GLP-1-(7-37)-peptidyl-Glu-Phe-Leu amide] = 0.256 nM

Lookup: What value of measured CRE luciferase EC50, 0% HSA is listed for HAQGTFTSDYSKYLDSKAAREFVQWLLEKVKEFL-NH2 [[Ala2,Lys17,Ala18,Arg20,Glu21,Leu27,Glu28,Lys29]-Glucagonyl-(1-29)-Val-Lys-Glu-Phe-Leu amide] ?
Found: 0.971 nM

Lookup: What value of measured CRE luciferase EC50, 0% HSA is listed for HAEGTFTSDLSKQMEEEAVREFIEWLKNKVLEFL-NH2 [[Ala2,Glu21,Lys29,Val30,Leu31,Glu32,Phe33,Leu34]-Exendin-4-(1-34)-peptide amide] ?
Found: 0.031 nM

Lookup: What value of measured CRE luciferase EC50, 0% HSA is listed for HAEGTFTSDVSSYLEGQKAKEFIAWLVEGVKEFL-NH2 [[Lys24,Glu34,Val36,Lys37]-GLP-1-(7-37)-peptidyl-Glu-Phe-Leu amide] ?
Found: 0.702 nM

Lookup: What value of measured CRE luciferase EC50, 0% HSA is listed for HAEGTFTSDVSSYLEEEAVKEFIAWLVEKVKEF-NH2 [[Glu22,Glu23,Val25,Glu34,Lys35,Val36,Lys37]-GLP-1-(7-37)-peptidyl-Glu-Phe amide] ?
Found: 0.02 nM

Lookup: What value of measured CRE luciferase EC50, 0% HSA is listed for HAEGTFTSDVSSYLEGQAAKEFIAWLVEKVKEFLER [[Glu34,Lys35,Val36,Lys37]-GLP-1-(7-37)-peptidyl-Glu-Phe-Leu-Glu-Arg] ?
Found: 0.034 nM
